Assign pIC50 to each entry below.
Target: Acetylcholinesterase (Electrophorus electricus)
Reminder that pIC50 means the negative base-10 logarithm of the concentration expressed in mol/L.

What value of pIC50 has been reported for the following compound? "O=c1cc(-c2ccc(OCc3ccccc3)cc2)oc2cc(OCCCCCCCCN3CCCC3)ccc12"
5.72

What value of pIC50 has been reported for the following compound? "O=c1cc(-c2ccccc2OCc2ccccc2)oc2cc(OCCCCCCCCN3CCCC3)ccc12"
5.70

What value of pIC50 has been reported for the following compound? "O=c1cc(-c2cccc3ccccc23)oc2cc(OCCCCCCCCN3CCCC3)ccc12"
6.14

What value of pIC50 has been reported for the following compound? "O=c1cc(-c2ccc(Cl)cc2)oc2cc(OCCCCCCCCN3CCCC3)ccc12"
5.95

What value of pIC50 has been reported for the following compound? "O=c1cc(-c2ccccc2O)oc2cc(OCCCCCCCCN3CCCC3)ccc12"
5.51

What value of pIC50 has been reported for the following compound? "O=c1cc(-c2ccc(Br)cc2)oc2cc(OCCCCCCCCN3CCCC3)ccc12"
5.67

What value of pIC50 has been reported for the following compound? "O=c1cc(-c2cccc(OCc3ccccc3)c2)oc2cc(OCCCCCCCCN3CCCC3)ccc12"
5.80

What value of pIC50 has been reported for the following compound? "COc1ccc(-c2cc(=O)c3ccc(OCCCCCCCCN4CCCC4)cc3o2)cc1OC"
6.08

What value of pIC50 has been reported for the following compound? "Cc1ccc(-c2cc(=O)c3ccc(OCCCCCCCCN4CCCC4)cc3o2)cc1"
5.90

What value of pIC50 has been reported for the following compound? "COc1cc(-c2cc(=O)c3ccc(OCCCCCCCCN4CCCC4)cc3o2)cc(OC)c1OC"
5.97

---

Assay: Cytotoxicity against rat PC12 cells at 1 uM after 48 hrs by MTT assay
Assay type: cell-based, PC-12
Details: read-out: INH
measured parameter: cytotoxicity at 48 h, 1 µM (%)
Express it in %; write the number only.

What value of cytotoxicity at 48 h, 1 µM has been reported for the following compound? "O=c1cc(-c2ccccc2)oc2cc(OCCCCCCCCN3CCCC3)ccc12"
-2.83

What value of cytotoxicity at 48 h, 1 µM has been reported for the following compound? "COc1ccc(-c2cc(=O)c3ccc(OCCCCCCCCN4CCCC4)cc3o2)cc1"
-0.15

What value of cytotoxicity at 48 h, 1 µM has been reported for the following compound? "O=c1cc(-c2ccc(O)cc2)oc2cc(OCCCCCCCCN3CCCC3)ccc12"
0.7

What value of cytotoxicity at 48 h, 1 µM has been reported for the following compound? "COc1ccccc1-c1cc(=O)c2ccc(OCCCCCCCCN3CCCC3)cc2o1"
3.08

What value of cytotoxicity at 48 h, 1 µM has been reported for the following compound? "O=c1cc(-c2ccc(N3CCCC3)cc2)oc2cc(OCCCCCCCCN3CCCC3)ccc12"
0.29

What value of cytotoxicity at 48 h, 1 µM has been reported for the following compound? "O=c1cc(-c2ccccc2OCc2ccccc2)oc2cc(OCCCCCCCCN3CCCC3)ccc12"
0.47

What value of cytotoxicity at 48 h, 1 µM has been reported for the following compound? "O=c1cc(-c2ccc(-c3ccccc3)cc2)oc2cc(OCCCCCCCCN3CCCC3)ccc12"
0.46

What value of cytotoxicity at 48 h, 1 µM has been reported for the following compound? "O=c1cc(-c2ccc(Br)cc2)oc2cc(OCCCCCCCCN3CCCC3)ccc12"
2.5

What value of cytotoxicity at 48 h, 1 µM has been reported for the following compound? "O=c1cc(-c2cccc(O)c2)oc2cc(OCCCCCCCCN3CCCC3)ccc12"
-4.43

What value of cytotoxicity at 48 h, 1 µM has been reported for the following compound? "O=c1cc(-c2ccc(OCc3ccccc3)cc2)oc2cc(OCCCCCCCCN3CCCC3)ccc12"
-2.83

---

Assign IC50 to each entry below.
Express it in nM; write the number only.

Observed IC50 on Acetylcholinesterase (Electrophorus electricus, UniProt O42275) for "COc1ccccc1-c1cc(=O)c2ccc(OCCCCCCCCN3CCCC3)cc2o1" , please.
Sequence (O42275 whole entry): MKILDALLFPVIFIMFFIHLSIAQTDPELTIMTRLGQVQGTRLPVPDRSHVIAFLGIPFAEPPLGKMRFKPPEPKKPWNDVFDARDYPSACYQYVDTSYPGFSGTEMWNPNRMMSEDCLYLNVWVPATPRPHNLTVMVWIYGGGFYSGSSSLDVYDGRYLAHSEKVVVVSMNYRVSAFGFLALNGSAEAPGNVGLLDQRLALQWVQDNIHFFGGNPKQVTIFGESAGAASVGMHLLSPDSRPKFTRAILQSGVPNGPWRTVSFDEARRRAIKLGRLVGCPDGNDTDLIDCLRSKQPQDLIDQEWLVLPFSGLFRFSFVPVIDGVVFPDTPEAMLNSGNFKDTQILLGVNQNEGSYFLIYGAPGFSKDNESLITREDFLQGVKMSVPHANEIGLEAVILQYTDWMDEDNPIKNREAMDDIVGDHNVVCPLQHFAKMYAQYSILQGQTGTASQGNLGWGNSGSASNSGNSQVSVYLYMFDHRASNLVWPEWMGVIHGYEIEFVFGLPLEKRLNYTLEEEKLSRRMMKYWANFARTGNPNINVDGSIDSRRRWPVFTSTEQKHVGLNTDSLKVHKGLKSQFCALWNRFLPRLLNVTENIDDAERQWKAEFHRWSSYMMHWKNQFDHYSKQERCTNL
640

Observed IC50 on Acetylcholinesterase (Electrophorus electricus, UniProt O42275) for "O=c1cc(-c2ccc(O)cc2)oc2cc(OCCCCCCCCN3CCCC3)ccc12" , please.
1210

Observed IC50 on Acetylcholinesterase (Electrophorus electricus, UniProt O42275) for "COc1cccc(-c2cc(=O)c3ccc(OCCCCCCCCN4CCCC4)cc3o2)c1" , please.
670

---

Assay: Cytotoxicity against rat PC12 cells at 1 uM after 48 hrs by MTT assay
Format: cell-based, PC-12
Conditions: read-out: INH
Assign cytotoxicity at 48 h, 1 µM to each entry below.
Express it in %; write the number only.

What value of cytotoxicity at 48 h, 1 µM has been reported for the following molecule? Nc1c2c(nc3ccccc13)CCCC2 [TACRINE]
4.62

What value of cytotoxicity at 48 h, 1 µM has been reported for the following molecule? "COc1cccc(-c2cc(=O)c3ccc(OCCCCCCCCN4CCCC4)cc3o2)c1"
3.53

What value of cytotoxicity at 48 h, 1 µM has been reported for the following molecule? "COc1ccc(-c2cc(=O)c3ccc(OCCCCCCCCN4CCCC4)cc3o2)cc1OC"
7.29

What value of cytotoxicity at 48 h, 1 µM has been reported for the following molecule? "O=c1cc(-c2cccc3ccccc23)oc2cc(OCCCCCCCCN3CCCC3)ccc12"
3

What value of cytotoxicity at 48 h, 1 µM has been reported for the following molecule? "O=c1cc(-c2ccccc2O)oc2cc(OCCCCCCCCN3CCCC3)ccc12"
-7.71

---

Biological target: Acetylcholinesterase (Electrophorus electricus)
measured parameter: Ki (nM)
Express it in nM; write the number only.

What value of Ki has been reported for the following molecule? "O=c1cc(-c2cccc3ccccc23)oc2cc(OCCCCCCCCN3CCCC3)ccc12"
206

---

Molecular target: Cholinesterase (Equus caballus)
Sequence (P81908 whole entry): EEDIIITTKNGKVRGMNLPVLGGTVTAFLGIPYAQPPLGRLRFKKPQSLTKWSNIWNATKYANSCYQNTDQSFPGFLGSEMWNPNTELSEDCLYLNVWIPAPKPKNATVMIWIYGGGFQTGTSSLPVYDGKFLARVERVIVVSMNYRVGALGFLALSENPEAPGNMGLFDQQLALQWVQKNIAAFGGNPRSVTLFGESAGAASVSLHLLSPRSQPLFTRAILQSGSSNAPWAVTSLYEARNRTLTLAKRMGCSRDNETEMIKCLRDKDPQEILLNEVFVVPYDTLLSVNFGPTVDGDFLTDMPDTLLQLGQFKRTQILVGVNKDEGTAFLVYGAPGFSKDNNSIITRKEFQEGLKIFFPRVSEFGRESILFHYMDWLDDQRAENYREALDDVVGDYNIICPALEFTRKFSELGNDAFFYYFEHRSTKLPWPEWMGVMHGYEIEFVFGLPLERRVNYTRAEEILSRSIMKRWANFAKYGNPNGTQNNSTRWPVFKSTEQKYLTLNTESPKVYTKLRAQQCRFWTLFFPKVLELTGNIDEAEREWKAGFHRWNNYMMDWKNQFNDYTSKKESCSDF
Test: Inhibition of equine serum BChE using BTC as substrate preincubated for 15 mins followed by substrate addition measured at 1 min intervals by Ellman method
measured parameter: pIC50
Reminder that pIC50 means the negative base-10 logarithm of the concentration expressed in mol/L.

Observed pIC50 on Cholinesterase (Equus caballus) for "O=c1cc(-c2cccc(O)c2)oc2cc(OCCCCCCCCN3CCCC3)ccc12" , please.
5.31

Observed pIC50 on Cholinesterase (Equus caballus) for "COc1cc(-c2cc(=O)c3ccc(OCCCCCCCCN4CCCC4)cc3o2)cc(OC)c1OC" , please.
5.66

Observed pIC50 on Cholinesterase (Equus caballus) for "O=c1cc(-c2ccc(N3CCCC3)cc2)oc2cc(OCCCCCCCCN3CCCC3)ccc12" , please.
5.39

Observed pIC50 on Cholinesterase (Equus caballus) for "O=c1cc(-c2cccc3ccccc23)oc2cc(OCCCCCCCCN3CCCC3)ccc12" , please.
6.38

Observed pIC50 on Cholinesterase (Equus caballus) for "O=c1cc(-c2ccccc2)oc2cc(OCCCCCCCCN3CCCC3)ccc12" , please.
5.65

Observed pIC50 on Cholinesterase (Equus caballus) for "Cc1ccc(-c2cc(=O)c3ccc(OCCCCCCCCN4CCCC4)cc3o2)cc1" , please.
5.72

Observed pIC50 on Cholinesterase (Equus caballus) for "COc1ccc(-c2cc(=O)c3ccc(OCCCCCCCCN4CCCC4)cc3o2)cc1" , please.
5.27

Observed pIC50 on Cholinesterase (Equus caballus) for "O=c1cc(-c2ccccc2O)oc2cc(OCCCCCCCCN3CCCC3)ccc12" , please.
5.90

Observed pIC50 on Cholinesterase (Equus caballus) for "O=c1cc(-c2ccccc2OCc2ccccc2)oc2cc(OCCCCCCCCN3CCCC3)ccc12" , please.
5.28

Observed pIC50 on Cholinesterase (Equus caballus) for "O=c1cc(-c2ccc(Br)cc2)oc2cc(OCCCCCCCCN3CCCC3)ccc12" , please.
4.99

Observed pIC50 on Cholinesterase (Equus caballus) for "O=c1cc(-c2ccc(Cl)cc2)oc2cc(OCCCCCCCCN3CCCC3)ccc12" , please.
5.46

Observed pIC50 on Cholinesterase (Equus caballus) for "O=c1cc(-c2ccc(O)cc2)oc2cc(OCCCCCCCCN3CCCC3)ccc12" , please.
5.34

Observed pIC50 on Cholinesterase (Equus caballus) for "COc1ccc(-c2cc(=O)c3ccc(OCCCCCCCCN4CCCC4)cc3o2)cc1OC" , please.
5.46

Observed pIC50 on Cholinesterase (Equus caballus) for "COc1cccc(-c2cc(=O)c3ccc(OCCCCCCCCN4CCCC4)cc3o2)c1" , please.
5.64

Observed pIC50 on Cholinesterase (Equus caballus) for "COc1ccccc1-c1cc(=O)c2ccc(OCCCCCCCCN3CCCC3)cc2o1" , please.
6.12

---

Assay: Cytotoxicity against rat PC12 cells at 1 uM after 48 hrs by MTT assay
Assay type: cell-based, PC-12
Conditions: read-out: INH
measured parameter: cytotoxicity at 48 h, 1 µM (%)
Express it in %; write the number only.

What value of cytotoxicity at 48 h, 1 µM has been reported for the following compound? "O=c1cc(-c2cccc(OCc3ccccc3)c2)oc2cc(OCCCCCCCCN3CCCC3)ccc12"
0.79

What value of cytotoxicity at 48 h, 1 µM has been reported for the following compound? "Cc1ccc(-c2cc(=O)c3ccc(OCCCCCCCCN4CCCC4)cc3o2)cc1"
-0.55

What value of cytotoxicity at 48 h, 1 µM has been reported for the following compound? "O=c1cc(-c2ccc(Cl)cc2)oc2cc(OCCCCCCCCN3CCCC3)ccc12"
6.27

What value of cytotoxicity at 48 h, 1 µM has been reported for the following compound? "COc1cc(-c2cc(=O)c3ccc(OCCCCCCCCN4CCCC4)cc3o2)cc(OC)c1OC"
-4.47
